Target: Aldehyde dehydrogenase 1A1 (Homo sapiens)
Sequence (P00352 whole entry): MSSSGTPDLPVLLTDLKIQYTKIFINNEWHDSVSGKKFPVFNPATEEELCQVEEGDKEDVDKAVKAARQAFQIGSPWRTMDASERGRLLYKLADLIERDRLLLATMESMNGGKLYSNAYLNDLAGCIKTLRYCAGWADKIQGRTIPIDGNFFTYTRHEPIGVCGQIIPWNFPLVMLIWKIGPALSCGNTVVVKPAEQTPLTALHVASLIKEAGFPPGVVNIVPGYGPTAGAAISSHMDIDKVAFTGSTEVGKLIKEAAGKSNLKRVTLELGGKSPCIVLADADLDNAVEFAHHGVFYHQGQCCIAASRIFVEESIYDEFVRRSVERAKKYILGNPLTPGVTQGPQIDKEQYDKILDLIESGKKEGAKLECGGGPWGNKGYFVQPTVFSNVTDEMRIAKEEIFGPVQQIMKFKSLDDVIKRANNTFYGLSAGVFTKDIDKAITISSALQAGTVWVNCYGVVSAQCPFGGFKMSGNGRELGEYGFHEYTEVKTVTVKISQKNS
Literature roundup of Aldehyde dehydrogenase 1A1 (Homo sapiens) data, read-out IC50.
RECORDED METRIC: IC50 (nM)

Solved cases (5 shown):
MOLECULE	TARGET	OUTPUT UNIT	IC50
O=C1C(=O)N(CCc2ccccc2)c2ccccc21	Aldehyde dehydrogenase 1A1 (Homo sapiens)	nM	70
CN(C)c1ccc(-c2nc3ccccc3n2Cc2ccccc2)cc1	Aldehyde dehydrogenase 1A1 (Homo sapiens)	nM	550
O=C(C1CC1)N1CCN(Cc2nc3ccccc3n2Cc2cccc(Cl)c2)CC1	Aldehyde dehydrogenase 1A1 (Homo sapiens)	nM	2110
O=C1C(=O)N(CN2CCN(CN3C(=O)C(=O)c4ccccc43)C2)c2ccccc21	Aldehyde dehydrogenase 1A1 (Homo sapiens)	nM	19000
CC(C)=CCn1c(CN2CCN(C(=O)C3CC3)CC2)nc2ccccc21	Aldehyde dehydrogenase 1A1 (Homo sapiens)	nM	1500

1: CN1CCN(CN2C(=O)C(=O)c3ccccc32)CC1
2: COc1ccc(-n2cnc3cc(C(=O)N4CCCCC4)ccc32)cc1
3: Cc1cc(-c2nnc3n2CCCCC3)c(C)n1-c1ccc(Cl)c(Cl)c1
4: O=C1C(=O)N(CCc2ccccc2)c2ccc(Br)cc21
5: Cc1cccc(Cn2c(CN3CCN(C(=O)C4CC4)CC3)nc3ccccc32)c1
Put the entries in order of IC50, starting with the largest number. Quick reminder: the answer is the labels in the order asked.
1, 4, 2, 3, 5
(1: 35000 nM, 4: 2000 nM, 2: 1360 nM, 3: 607 nM, 5: 243 nM)

P: O=C(c1ccc2c(c1)ncn2-c1cccc(Cl)c1)N1CCCCC1
Q: O=C1C(=O)N(CN2CCN(Cc3cccc(F)c3)CC2)c2ccccc21
Form field 'greater IC50' accepts P or Q ; which applies? Kindly give the label for the entry you pick.
Q

1: COc1ccc(-c2nc3ccccc3n2Cc2ccccc2)cc1
2: O=C1C(=O)N(C/C=C/c2ccccc2)c2ccc(Cl)cc21
3: O=C1C(=O)N(CN2CCN(Cc3ccc4c(c3)OCO4)CC2)c2ccc(Br)cc21
4: O=C1C(=O)N(CCc2ccccc2)c2ccc(Cl)cc21
In this exercise, place the 4 molecules in ascending sequence of their recorded IC50. Quick reminder: the answer is the labels in the order asked.
4, 2, 1, 3
